meta.source: patent US20240190889A1

molecular target: human GABAA α2β2γ1 receptor (Homo sapiens (Human), UniProt P47869+Q8N1C3); assay: Radioligand binding assay, competition for [3H]RO7239181, γ1-containing GABAA subtypes; conditions: read-out: Ki h-GABAA α2β2γ1; membranes from HEK293F cells, [3H]RO7239181 20-30 nM, mean of two determinations
The compounds listed here are annotated with their Ki.
# output: bare number, implied unit nM

[
  {
    "smiles structure": "C[C@@H]1N=C(c2c(F)cccc2Cl)c2c(sc3c2C[C@@H](C(F)F)C3)-n2c(C3CC3)nnc21",
    "unit of measure": "nM",
    "quantitative readout": 10.3
  }
]

Req: Give reported Ki value for Fc1cccc(F)c1C1=NCc2nnc(-c3cccnn3)n2-c2sc3c(c21)C[C@@H](C(F)F)C3
Resp: 3

Req: Tell me measured Ki for Cc1nnc2n1-c1sc3c(c1C(c1c(F)cccc1Cl)=N[C@H]2C)C[C@@H](C(F)F)C3 please.
Resp: 3.6

Req: Specify Ki for C[C@@H]1N=C(c2c(F)cccc2Cl)c2c(sc3c2C[C@@H](C(F)F)C3)-n2c(-c3cccnn3)nnc21 and stop.
Resp: 13.4

====

target: h-GABA-A α2β2γ1 receptor expressed in Xenopus laevis oocytes (Homo sapiens (Human), UniProt P47869+Q8N1C3); experiment: Two-electrode voltage clamp electrophysiology in Xenopus oocytes expressing GABAA receptors; format: cell-based; conditions: GABA EC20, test compound at approx. 30-fold its Ki α2β2γ1, at least 3 oocytes
observable: Fold increase h-GABA-A α2β2γ1 oocyte @ 30-fold Ki
// response body must contain only the number

[
  {
    "smiles structure": "Cc1nnc2n1-c1sc3c(c1C(c1c(F)cccc1Cl)=NC2)C[C@@H](C(F)F)C3",
    "quantitative readout": 1.51
  },
  {
    "smiles structure": "Cc1nnc2n1-c1sc3c(c1C(c1c(F)cccc1F)=NC2)C[C@@H](C)C3",
    "quantitative readout": 1.68
  },
  {
    "smiles structure": "C[C@@H]1N=C(c2c(F)cccc2F)c2c(sc3c2C[C@@H](C(F)F)C3)-n2nc(C(=O)NCCO)nc21",
    "quantitative readout": 1.65
  }
]

Req: Give the reported Fold increase h-GABA-A α2β2γ1 oocyte @ 30-fold Ki for this compound. C[C@@H]1N=C(c2c(F)cccc2Cl)c2c(sc3c2C[C@@H](C(F)F)C3)-n2c(C3CC3)nnc21
Resp: 1.44

Req: Give the value of Fold increase h-GABA-A α2β2γ1 oocyte @ 30-fold Ki reported for the following: Cc1nnc2n1-c1sc3c(c1C(c1c(F)cccc1F)=NC2)C[C@@H](C#N)C3
Resp: 1.35

Req: Identify measured Fold increase h-GABA-A α2β2γ1 oocyte @ 30-fold Ki corresponding to Cc1nnc2n1-c1sc3c(c1C(c1c(F)cccc1Cl)=NC2)C[C@@H](C#N)C3
Resp: 1.54

Req: Report measured Fold increase h-GABA-A α2β2γ1 oocyte @ 30-fold Ki; entry is C[C@@H]1N=C(c2c(F)cccc2F)c2c(sc3c2C[C@@H](C(F)F)C3)-n2nc(C(=O)N3CCS(=O)(=O)CC3)nc21
Resp: 1.43

Req: Fill in reported Fold increase h-GABA-A α2β2γ1 oocyte @ 30-fold Ki for this entry: Cc1nnc2n1-c1sc3c(c1C(c1c(F)cccc1F)=N[C@H]2C)C[C@@H](C(F)(F)F)C3
Resp: 1.51
